B1: TPR 5TU (parent)
chain: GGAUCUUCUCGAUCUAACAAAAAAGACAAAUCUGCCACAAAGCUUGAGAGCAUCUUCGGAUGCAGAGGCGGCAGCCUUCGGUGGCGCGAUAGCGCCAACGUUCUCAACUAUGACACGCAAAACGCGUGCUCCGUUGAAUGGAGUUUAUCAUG

# Variants of: B1
# PROTOCOL NOTES: polymerase ribozyme fitness, log enrichment relative to wild type (log ratio); higher = more active; in vitro selection for triplet polymerase activity
This sample holds only a part of the variants without activity.
Examples of variants with documented polymerase ribozyme fitness (log ratio) follow.
ASSAY METRIC: polymerase ribozyme fitness (log ratio)

{"VARIANT DESCRIPTOR": "C76U U82G C87U", "READING QUALIFIER": "=", "RESULT": 0.25}
{"VARIANT DESCRIPTOR": "A17U A98G", "READING QUALIFIER": "=", "RESULT": -0.0344}
{"VARIANT DESCRIPTOR": "U6G A24U A119U G136U", "READING QUALIFIER": "=", "RESULT": -3.74}
{"VARIANT DESCRIPTOR": "G94A U148C", "READING QUALIFIER": "=", "RESULT": -2.75}
{"VARIANT DESCRIPTOR": "A19U U31C C51U", "READING QUALIFIER": "=", "RESULT": 0.159}
{"VARIANT DESCRIPTOR": "U7A A49C C103A U139A", "READING QUALIFIER": "≤", "RESULT": -4.2}
{"VARIANT DESCRIPTOR": "A52G C103U", "READING QUALIFIER": "=", "RESULT": -1.06}
{"VARIANT DESCRIPTOR": "C35A A52C G67U G68C C76U A115U A120C U134C", "READING QUALIFIER": "≤", "RESULT": -4.2}
{"VARIANT DESCRIPTOR": "A37G C95G C114U A119U A120G", "READING QUALIFIER": "≤", "RESULT": -4.2}
{"VARIANT DESCRIPTOR": "C18G A26U C96A", "READING QUALIFIER": "=", "RESULT": -2.84}
{"VARIANT DESCRIPTOR": "A107U A120G C132A A147C", "READING QUALIFIER": "≤", "RESULT": -4.2}
{"VARIANT DESCRIPTOR": "U56C G143U", "READING QUALIFIER": "=", "RESULT": -2.95}
{"VARIANT DESCRIPTOR": "A41C A52C G70A C118U", "READING QUALIFIER": "≤", "RESULT": -4.2}
{"VARIANT DESCRIPTOR": "G42U U45G U53C G88U A137C", "READING QUALIFIER": "≤", "RESULT": -4.2}
{"VARIANT DESCRIPTOR": "U31C G58A G94U G143U", "READING QUALIFIER": "=", "RESULT": -2.9}
{"VARIANT DESCRIPTOR": "A22U U55A A115C C123U U130G", "READING QUALIFIER": "=", "RESULT": -2.84}
{"VARIANT DESCRIPTOR": "C38G A142C", "READING QUALIFIER": "=", "RESULT": -1.24}
{"VARIANT DESCRIPTOR": "C5A C87U", "READING QUALIFIER": "=", "RESULT": -0.502}
{"VARIANT DESCRIPTOR": "G83A C85U A115U C116U", "READING QUALIFIER": "=", "RESULT": -2.68}
{"VARIANT DESCRIPTOR": "C57U A66C G92U C93A", "READING QUALIFIER": "≤", "RESULT": -4.2}
{"VARIANT DESCRIPTOR": "A21G C27U A40U C69U C95G A98G C99U A115U A142U", "READING QUALIFIER": "≤", "RESULT": -4.2}
{"VARIANT DESCRIPTOR": "C75G C129U", "READING QUALIFIER": "≤", "RESULT": -4.2}
{"VARIANT DESCRIPTOR": "A17U C57G", "READING QUALIFIER": "=", "RESULT": -0.677}
{"VARIANT DESCRIPTOR": "U7G A40U A66C G81C A120G U146G", "READING QUALIFIER": "≤", "RESULT": -4.2}
{"VARIANT DESCRIPTOR": "C72U G124U A142G", "READING QUALIFIER": "=", "RESULT": -2}
{"VARIANT DESCRIPTOR": "G83A G88U C125A G152U", "READING QUALIFIER": "≤", "RESULT": -4.2}
{"VARIANT DESCRIPTOR": "A19U U33A G84A G92C G94C", "READING QUALIFIER": "≤", "RESULT": -4.2}
{"VARIANT DESCRIPTOR": "C8A A73G C93A U146C", "READING QUALIFIER": "=", "RESULT": -4.17}
{"VARIANT DESCRIPTOR": "A16U C87A G100A", "READING QUALIFIER": "≤", "RESULT": -4.2}
{"VARIANT DESCRIPTOR": "U55A G86U A91U G133U A147U", "READING QUALIFIER": "≤", "RESULT": -4.2}
{"VARIANT DESCRIPTOR": "C8G C27G C36G A39C C85A", "READING QUALIFIER": "≤", "RESULT": -4.2}
{"VARIANT DESCRIPTOR": "G59U C99U U104G G128U U134A G136U A138G", "READING QUALIFIER": "≤", "RESULT": -4.2}
{"VARIANT DESCRIPTOR": "C51A G74A", "READING QUALIFIER": "≤", "RESULT": -4.2}
{"VARIANT DESCRIPTOR": "G86C A98C", "READING QUALIFIER": "=", "RESULT": -1}
{"VARIANT DESCRIPTOR": "A3C U4A A121G G141A A142C", "READING QUALIFIER": "=", "RESULT": -4.03}
{"VARIANT DESCRIPTOR": "G11A C54A", "READING QUALIFIER": "=", "RESULT": -2.47}
{"VARIANT DESCRIPTOR": "C87U A97U", "READING QUALIFIER": "=", "RESULT": -2.25}
{"VARIANT DESCRIPTOR": "A22U G46C C114U", "READING QUALIFIER": "=", "RESULT": -3.67}
{"VARIANT DESCRIPTOR": "U15G C96U", "READING QUALIFIER": "=", "RESULT": -1.19}
{"VARIANT DESCRIPTOR": "C85U C95U", "READING QUALIFIER": "=", "RESULT": -1.72}
{"VARIANT DESCRIPTOR": "U4A A17C G94A C149U", "READING QUALIFIER": "=", "RESULT": -1.61}
{"VARIANT DESCRIPTOR": "C93U G136A", "READING QUALIFIER": "=", "RESULT": -1.1}
{"VARIANT DESCRIPTOR": "G62A G140A", "READING QUALIFIER": "=", "RESULT": -3.95}
{"VARIANT DESCRIPTOR": "U9A A23G G68C C79U G94C C105G G143A", "READING QUALIFIER": "≤", "RESULT": -4.2}
{"VARIANT DESCRIPTOR": "A98U U148A", "READING QUALIFIER": "=", "RESULT": -3.03}
{"VARIANT DESCRIPTOR": "C51U C75U C118U", "READING QUALIFIER": "=", "RESULT": -1.3}
